B1: CPEB3 Ribozyme (parent)
chain: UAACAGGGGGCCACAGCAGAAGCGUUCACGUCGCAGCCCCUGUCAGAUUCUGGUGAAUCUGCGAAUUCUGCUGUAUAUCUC

Variants of: B1
Assay: self-cleavage, relative activity (ratio to wild type); higher = more cleavage; in vitro, sequencing
Readings of self-cleavage for the listed variants
readout.name: self-cleavage

[
  {
    "mutation.name": "G10C U43A",
    "readout.name": "self-cleavage",
    "readout.number": 0.38
  },
  {
    "mutation.name": "A47C U76A",
    "readout.name": "self-cleavage",
    "readout.number": 0.48
  },
  {
    "mutation.name": "C59G U66C",
    "readout.name": "self-cleavage",
    "readout.number": 0.19
  },
  {
    "mutation.name": "U1A U72G",
    "readout.name": "self-cleavage",
    "readout.number": 0.75
  },
  {
    "mutation.name": "C12G A65U",
    "readout.name": "self-cleavage",
    "readout.number": 0.1
  },
  {
    "mutation.name": "G55U",
    "readout.name": "self-cleavage",
    "readout.number": 1.02
  },
  {
    "mutation.name": "C14U C32A",
    "readout.name": "self-cleavage",
    "readout.number": 0.2
  },
  {
    "mutation.name": "G61A A77U",
    "readout.name": "self-cleavage",
    "readout.number": 0.98
  },
  {
    "mutation.name": "A5G C27A",
    "readout.name": "self-cleavage",
    "readout.number": 0.44
  },
  {
    "mutation.name": "G24A U78A",
    "readout.name": "self-cleavage",
    "readout.number": 0.07
  },
  {
    "mutation.name": "C62A U80A",
    "readout.name": "self-cleavage",
    "readout.number": 0.1
  },
  {
    "mutation.name": "A21G U41A",
    "readout.name": "self-cleavage",
    "readout.number": 0.3
  },
  {
    "mutation.name": "A21G U78C",
    "readout.name": "self-cleavage",
    "readout.number": 0.58
  },
  {
    "mutation.name": "A3G G30A",
    "readout.name": "self-cleavage",
    "readout.number": 0.44
  },
  {
    "mutation.name": "G70A U80A",
    "readout.name": "self-cleavage",
    "readout.number": 1
  },
  {
    "mutation.name": "U43G U72A",
    "readout.name": "self-cleavage",
    "readout.number": 0.1
  },
  {
    "mutation.name": "G9C C44U",
    "readout.name": "self-cleavage",
    "readout.number": 0.18
  },
  {
    "mutation.name": "G36C",
    "readout.name": "self-cleavage",
    "readout.number": 0.31
  },
  {
    "mutation.name": "G7U C37G",
    "readout.name": "self-cleavage",
    "readout.number": 0.53
  },
  {
    "mutation.name": "G10A C38U",
    "readout.name": "self-cleavage",
    "readout.number": 0.08
  },
  {
    "mutation.name": "U25C U58A",
    "readout.name": "self-cleavage",
    "readout.number": 0.29
  },
  {
    "mutation.name": "A56U A64U",
    "readout.name": "self-cleavage",
    "readout.number": 0.28
  },
  {
    "mutation.name": "A3U G73C",
    "readout.name": "self-cleavage",
    "readout.number": 1.25
  },
  {
    "mutation.name": "A56U A65U",
    "readout.name": "self-cleavage",
    "readout.number": 0.21
  },
  {
    "mutation.name": "C11U U78A",
    "readout.name": "self-cleavage",
    "readout.number": 0.53
  },
  {
    "mutation.name": "G8A G42A",
    "readout.name": "self-cleavage",
    "readout.number": 0.1
  },
  {
    "mutation.name": "G30C C62U",
    "readout.name": "self-cleavage",
    "readout.number": 0.06
  },
  {
    "mutation.name": "G6U U48C",
    "readout.name": "self-cleavage",
    "readout.number": 0.13
  },
  {
    "mutation.name": "C12U U54C",
    "readout.name": "self-cleavage",
    "readout.number": 1.27
  },
  {
    "mutation.name": "U54C G55U",
    "readout.name": "self-cleavage",
    "readout.number": 0.78
  },
  {
    "mutation.name": "C4U G9U",
    "readout.name": "self-cleavage",
    "readout.number": 0.17
  },
  {
    "mutation.name": "C68U U69C",
    "readout.name": "self-cleavage",
    "readout.number": 0.43
  },
  {
    "mutation.name": "C79A",
    "readout.name": "self-cleavage",
    "readout.number": 1.19
  },
  {
    "mutation.name": "A13G U43C",
    "readout.name": "self-cleavage",
    "readout.number": 0.49
  },
  {
    "mutation.name": "A35G A75G",
    "readout.name": "self-cleavage",
    "readout.number": 1.31
  },
  {
    "mutation.name": "U51G C81A",
    "readout.name": "self-cleavage",
    "readout.number": 1.25
  },
  {
    "mutation.name": "A18C C39A",
    "readout.name": "self-cleavage",
    "readout.number": 0.41
  },
  {
    "mutation.name": "G42U U74C",
    "readout.name": "self-cleavage",
    "readout.number": 0.35
  },
  {
    "mutation.name": "A47U G70A",
    "readout.name": "self-cleavage",
    "readout.number": 0.13
  },
  {
    "mutation.name": "A13G G63A",
    "readout.name": "self-cleavage",
    "readout.number": 0.68
  },
  {
    "mutation.name": "U26C U66G",
    "readout.name": "self-cleavage",
    "readout.number": 0.21
  },
  {
    "mutation.name": "U49C U80A",
    "readout.name": "self-cleavage",
    "readout.number": 0.51
  },
  {
    "mutation.name": "C17U U60C",
    "readout.name": "self-cleavage",
    "readout.number": 0.21
  },
  {
    "mutation.name": "U74C U78G",
    "readout.name": "self-cleavage",
    "readout.number": 1.17
  },
  {
    "mutation.name": "U43A A47U",
    "readout.name": "self-cleavage",
    "readout.number": 0.63
  },
  {
    "mutation.name": "A18G A77C",
    "readout.name": "self-cleavage",
    "readout.number": 0.39
  },
  {
    "mutation.name": "C34U U48G",
    "readout.name": "self-cleavage",
    "readout.number": 0.3
  },
  {
    "mutation.name": "U26C G63U",
    "readout.name": "self-cleavage",
    "readout.number": 0.61
  },
  {
    "mutation.name": "G8U U67A",
    "readout.name": "self-cleavage",
    "readout.number": 0.19
  },
  {
    "mutation.name": "A21U U74A",
    "readout.name": "self-cleavage",
    "readout.number": 0.76
  },
  {
    "mutation.name": "G6A G42A",
    "readout.name": "self-cleavage",
    "readout.number": 0.15
  },
  {
    "mutation.name": "G6A G9C",
    "readout.name": "self-cleavage",
    "readout.number": 0.07
  },
  {
    "mutation.name": "C29G U31C",
    "readout.name": "self-cleavage",
    "readout.number": 0.13
  },
  {
    "mutation.name": "G9A U69A",
    "readout.name": "self-cleavage",
    "readout.number": 0.21
  },
  {
    "mutation.name": "G24C G61A",
    "readout.name": "self-cleavage",
    "readout.number": 0.18
  },
  {
    "mutation.name": "A35C A65G",
    "readout.name": "self-cleavage",
    "readout.number": 0.34
  },
  {
    "mutation.name": "C11G A57U",
    "readout.name": "self-cleavage",
    "readout.number": 0.39
  },
  {
    "mutation.name": "U67A U72A",
    "readout.name": "self-cleavage",
    "readout.number": 0.38
  },
  {
    "mutation.name": "C12G C50G",
    "readout.name": "self-cleavage",
    "readout.number": 0.28
  },
  {
    "mutation.name": "C4G U72A",
    "readout.name": "self-cleavage",
    "readout.number": 1.13
  },
  {
    "mutation.name": "C40G",
    "readout.name": "self-cleavage",
    "readout.number": 0.29
  },
  {
    "mutation.name": "A45U C62G",
    "readout.name": "self-cleavage",
    "readout.number": 0.44
  },
  {
    "mutation.name": "U51C U69C",
    "readout.name": "self-cleavage",
    "readout.number": 0.6
  },
  {
    "mutation.name": "A28C C62U",
    "readout.name": "self-cleavage",
    "readout.number": 0.06
  },
  {
    "mutation.name": "U26C A75G",
    "readout.name": "self-cleavage",
    "readout.number": 0.38
  },
  {
    "mutation.name": "A64G C68A",
    "readout.name": "self-cleavage",
    "readout.number": 0.2
  },
  {
    "mutation.name": "U41A A64U",
    "readout.name": "self-cleavage",
    "readout.number": 0.29
  },
  {
    "mutation.name": "G30A U49G",
    "readout.name": "self-cleavage",
    "readout.number": 0.22
  },
  {
    "mutation.name": "G16U C23U",
    "readout.name": "self-cleavage",
    "readout.number": 0.16
  },
  {
    "mutation.name": "C4A U72C",
    "readout.name": "self-cleavage",
    "readout.number": 1.22
  },
  {
    "mutation.name": "U41A G42C",
    "readout.name": "self-cleavage",
    "readout.number": 0.21
  },
  {
    "mutation.name": "A56U U58G",
    "readout.name": "self-cleavage",
    "readout.number": 0.18
  },
  {
    "mutation.name": "A5G C32U",
    "readout.name": "self-cleavage",
    "readout.number": 0.48
  },
  {
    "mutation.name": "G22A A65U",
    "readout.name": "self-cleavage",
    "readout.number": 0.08
  },
  {
    "mutation.name": "U60C G61C",
    "readout.name": "self-cleavage",
    "readout.number": 0.29
  },
  {
    "mutation.name": "U43A U72C",
    "readout.name": "self-cleavage",
    "readout.number": 1.17
  },
  {
    "mutation.name": "U25G U41A",
    "readout.name": "self-cleavage",
    "readout.number": 0.19
  },
  {
    "mutation.name": "U43C A56U",
    "readout.name": "self-cleavage",
    "readout.number": 0.26
  },
  {
    "mutation.name": "C34G U72C",
    "readout.name": "self-cleavage",
    "readout.number": 0.22
  },
  {
    "mutation.name": "A20U A45U",
    "readout.name": "self-cleavage",
    "readout.number": 0.14
  },
  {
    "mutation.name": "A56G C71U",
    "readout.name": "self-cleavage",
    "readout.number": 0.51
  },
  {
    "mutation.name": "C50G",
    "readout.name": "self-cleavage",
    "readout.number": 0.8
  },
  {
    "mutation.name": "C11G U66C",
    "readout.name": "self-cleavage",
    "readout.number": 0.21
  }
]
